System: ppGalNAc-T2 sensor
Test: T2 sensor activation Q score (MG/GFP ratio z-score vs DMSO controls) (SD units); higher = more sensor activation (inhibition of ppGalNAc-T2 glycosylation)
Conditions: HEK293 sensor cells; 10 µM; 6 h
Whole data set: some 1,700 compounds, median “T2 sensor activation Q score (MG/GFP ratio z-score vs DMSO controls)” near 0.3, cut for the highest 2% near 1.9. The list comes from a sample in which the highest values are over-represented; it also holds close analogues and randomly drawn compounds.

[
  {
    "compound": "Nc1cc(Nc2ccc(Br)cc2)nc(N)n1",
    "testedTarget": "ppGalNAc-T2 sensor",
    "T2 sensor activation Q score": 0.6
  },
  {
    "compound": "COC(=O)c1ccc(Cn2cnc3c(Cl)ncnc32)cc1",
    "testedTarget": "ppGalNAc-T2 sensor",
    "T2 sensor activation Q score": 1.6
  },
  {
    "compound": "Nc1nc(SCc2ccccn2)c2ncn(C3OC(CO)C(O)C3O)c2n1 (configuration not stated)",
    "testedTarget": "ppGalNAc-T2 sensor",
    "T2 sensor activation Q score": -0.15
  },
  {
    "compound": "Cc1cc(N)c2cc(NC(=O)C=Cc3ccccc3Cl)ccc2n1",
    "testedTarget": "ppGalNAc-T2 sensor",
    "T2 sensor activation Q score": 1.5
  },
  {
    "compound": "OCc1nnn(-c2ccccc2)c1CO",
    "testedTarget": "ppGalNAc-T2 sensor",
    "T2 sensor activation Q score": 0.8
  },
  {
    "compound": "S=c1cn[nH]c2ccccc12",
    "testedTarget": "ppGalNAc-T2 sensor",
    "T2 sensor activation Q score": 0.55
  },
  {
    "compound": "O=C(Nc1nc2ccccc2s1)Nc1ccc([N+](=O)[O-])cc1Cl",
    "testedTarget": "ppGalNAc-T2 sensor",
    "T2 sensor activation Q score": 0.35
  },
  {
    "compound": "Cc1cc2cc3c(=O)[nH]c(=O)[nH]c3nc2cc1C",
    "testedTarget": "ppGalNAc-T2 sensor",
    "T2 sensor activation Q score": -0.35
  },
  {
    "compound": "CCN1CCCCC(=NO)C(=NO)CCCC1",
    "testedTarget": "ppGalNAc-T2 sensor",
    "T2 sensor activation Q score": 1.05
  },
  {
    "compound": "O=C(c1ccccc1)c1ccccc1C(=O)c1ccccc1",
    "testedTarget": "ppGalNAc-T2 sensor",
    "T2 sensor activation Q score": 0.65
  },
  {
    "compound": "N#C/C(=C\\c1c[nH]c2ccccc12)C(N)=O",
    "testedTarget": "ppGalNAc-T2 sensor",
    "T2 sensor activation Q score": 0.8
  },
  {
    "compound": "CCOCc1cc(=O)[nH]c(SC)n1",
    "testedTarget": "ppGalNAc-T2 sensor",
    "T2 sensor activation Q score": -0.05
  },
  {
    "compound": "C#CC1(N2CCCCC2)CCCCC1",
    "testedTarget": "ppGalNAc-T2 sensor",
    "T2 sensor activation Q score": 0.8
  },
  {
    "compound": "CCc1nc(N)nc(N)c1-c1ccc(N(C)Cc2ccccc2)c([N+](=O)[O-])c1",
    "testedTarget": "ppGalNAc-T2 sensor",
    "T2 sensor activation Q score": -1.25
  },
  {
    "compound": "Nc1n[nH]c(CO)n1",
    "testedTarget": "ppGalNAc-T2 sensor",
    "T2 sensor activation Q score": 1.95
  },
  {
    "compound": "CCOC(=O)CCCN(c1[nH]c(C)c(C)c1C#N)S(=O)(=O)c1ccc(C)cc1",
    "testedTarget": "ppGalNAc-T2 sensor",
    "T2 sensor activation Q score": 1.05
  },
  {
    "compound": "Nc1n[nH]c(-c2ccccc2)n1",
    "testedTarget": "ppGalNAc-T2 sensor",
    "T2 sensor activation Q score": 0.75
  },
  {
    "compound": "CN(C)c1nc(Cl)nc2c1nc(Cl)n2C1CCCCO1 (configuration not stated)",
    "testedTarget": "ppGalNAc-T2 sensor",
    "T2 sensor activation Q score": 1.4
  },
  {
    "compound": "Cc1cc(=O)oc2cc(OS(C)(=O)=O)ccc12",
    "testedTarget": "ppGalNAc-T2 sensor",
    "T2 sensor activation Q score": 1.2
  },
  {
    "compound": "CN(C)c1ccc(C(c2ccc(N(C)C)cc2)c2ccc([N+](=O)[O-])cc2)cc1",
    "testedTarget": "ppGalNAc-T2 sensor",
    "T2 sensor activation Q score": 0.55
  },
  {
    "compound": "Cc1c(Cl)cccc1Nc1ncccc1C(=O)OCC(O)CO (configuration not stated)",
    "testedTarget": "ppGalNAc-T2 sensor",
    "T2 sensor activation Q score": -0.65
  },
  {
    "compound": "N#CCCCCN1CCCC1",
    "testedTarget": "ppGalNAc-T2 sensor",
    "T2 sensor activation Q score": -0.65
  }
]

* * *

Tested on: ppGalNAc-T2 sensor
Assay: T2 sensor activation Q score (MG/GFP ratio z-score vs DMSO controls) (SD units); higher = more sensor activation (inhibition of ppGalNAc-T2 glycosylation)
Details: HEK293 sensor cells; 10 µM; 6 h
Over roughly 1,700 compounds, “T2 sensor activation Q score (MG/GFP ratio z-score vs DMSO controls)” has its median near 0.3; the highest 2% begin near 1.9. The full list was thinned out, with the highest values kept by preference.
Entries annotated with measured T2 sensor activation Q score

[
  {
    "compound": "c1ccc(-c2nnc3oc(-c4cccs4)nn23)cc1",
    "T2 sensor activation Q score": -1.05
  },
  {
    "compound": "CC(=NNC(N)=O)c1ccc(Cl)c(-n2cccc2)c1",
    "T2 sensor activation Q score": 0.6
  },
  {
    "compound": "CC1CC(C)(C)C2=NCCN21 (configuration not stated)",
    "T2 sensor activation Q score": 1.3
  },
  {
    "compound": "CC(=O)[C@H]1CC[C@H]2[C@@H]3CCC4=CC(=O)C=C[C@]4(C)[C@H]3C(=O)C[C@]12C",
    "T2 sensor activation Q score": 1.65
  },
  {
    "compound": "FC(F)(F)c1cccc(OCC2CNC(=S)O2)c1 (configuration not stated)",
    "T2 sensor activation Q score": 0.65
  },
  {
    "compound": "CCCc1nc2c([nH]1)c(=O)n(C)c(=O)n2C",
    "T2 sensor activation Q score": 1.8
  },
  {
    "compound": "O=C(Nc1ccc(C2=NCCCN2)cc1)Nc1ccc(C2=NCCCN2)cc1",
    "T2 sensor activation Q score": -0.6
  },
  {
    "compound": "CCCCCCCCC(=O)c1c(OC)oc(C=O)cc1=O",
    "T2 sensor activation Q score": 0.5
  },
  {
    "compound": "N#CC(c1ccccc1)C(C/C(=N\\O)c1ccccc1)c1ccccc1 (configuration not stated)",
    "T2 sensor activation Q score": -0.8
  },
  {
    "compound": "NNC(=O)Cc1cc(=O)[nH][nH]1",
    "T2 sensor activation Q score": -0.7
  },
  {
    "compound": "CCOC(=O)Cc1cc(=O)c2cc(C)ccc2[nH]1",
    "T2 sensor activation Q score": 0.8
  },
  {
    "compound": "O=[N+]([O-])c1cccc(/C=C/c2ccccn2)c1",
    "T2 sensor activation Q score": -1.2
  },
  {
    "compound": "O=C(c1ccccc1)c1ccc(Sc2ccc([N+](=O)[O-])cc2)cc1",
    "T2 sensor activation Q score": 7.7
  },
  {
    "compound": "C=C(C)C(=O)Oc1ccc(N=Nc2ccc(C)cc2)ccc1=O",
    "T2 sensor activation Q score": 1.1
  },
  {
    "compound": "Clc1ccc(Oc2nc3c(Cl)cccc3s2)cc1Cl",
    "T2 sensor activation Q score": 0.85
  },
  {
    "compound": "CCOP(=O)(OCC)/C(C#N)=C/c1ccc([N+](=O)[O-])cc1",
    "T2 sensor activation Q score": 2.3
  },
  {
    "compound": "C(COC1CC2CC1C1C2CC2OC21)OC1CC2CC1C1C2CC2OC21 (configuration not stated)",
    "T2 sensor activation Q score": 0.15
  },
  {
    "compound": "O=C1C2C3C=CC(O3)C2C(=O)N1Nc1ccccc1 (configuration not stated)",
    "T2 sensor activation Q score": 0.25
  },
  {
    "compound": "CCOC(=O)C(C)c1c(C(=O)c2ccc(C)nc2)c2ccccc2n1C (configuration not stated)",
    "T2 sensor activation Q score": 0.9
  },
  {
    "compound": "CSC(=O)NC(=O)NC(=O)c1ccc([N+](=O)[O-])cc1",
    "T2 sensor activation Q score": 1.05
  },
  {
    "compound": "Nc1ccc(-c2nc3nc(N)nc(N)c3nc2-c2ccc(N)cc2)cc1",
    "T2 sensor activation Q score": 4.95
  },
  {
    "compound": "Cc1ccc(Nc2n[nH]c(=S)s2)cc1F",
    "T2 sensor activation Q score": -0.95
  },
  {
    "compound": "COC(=O)c1c(-c2ccccc2)[nH]c(-c2nccc3ccccc23)c1C(=O)OC",
    "T2 sensor activation Q score": -0.35
  },
  {
    "compound": "CCOP(=O)(OCC)/C(C#N)=C/c1c[nH]c2ccccc12",
    "T2 sensor activation Q score": -0.2
  },
  {
    "compound": "Oc1ccc(Cc2ccc(Cl)cc2)c(O)c1",
    "T2 sensor activation Q score": 1.3
  },
  {
    "compound": "CCN1CCCC(Sc2nc3c([nH]2)c(=S)n(C)c(=O)n3C)C1 (configuration not stated)",
    "T2 sensor activation Q score": 0.45
  },
  {
    "compound": "CCOP(=O)(OCC)/C(C#N)=C/c1ccc(-c2ccc(F)cc2F)o1",
    "T2 sensor activation Q score": -0.9
  },
  {
    "compound": "CCCCCOc1ccc(N2C(=O)C(C)CNC2=S)cc1 (configuration not stated)",
    "T2 sensor activation Q score": 0.7
  },
  {
    "compound": "NC(=O)c1ccccc1NC(=O)COc1ccc(Cl)cc1",
    "T2 sensor activation Q score": -0.45
  },
  {
    "compound": "O=[N+]([O-])c1cc(-c2cccnc2)n[nH]1",
    "T2 sensor activation Q score": -0.35
  },
  {
    "compound": "Cc1cccc(C(O)C(O)c2cccc(C)n2)n1 (configuration not stated)",
    "T2 sensor activation Q score": 0.55
  },
  {
    "compound": "CC(=O)C1C=CC(C)(C(=O)O)C2C=C(C)C(=O)C(C)(O)C12 (configuration not stated)",
    "T2 sensor activation Q score": 0.2
  },
  {
    "compound": "Clc1ccc(Nc2nnc(-c3ccc4c(c3)OCO4)o2)cc1",
    "T2 sensor activation Q score": -0.7
  },
  {
    "compound": "CCC(=Cc1ccc(CC)cn1)CC",
    "T2 sensor activation Q score": 1.85
  },
  {
    "compound": "Cc1c(Cl)cccc1NC(=O)CC1Sc2ccccc2NC1=O (configuration not stated)",
    "T2 sensor activation Q score": 2
  },
  {
    "compound": "Oc1ccc2ccccc2c1N=Nc1nccs1",
    "T2 sensor activation Q score": 0.9
  },
  {
    "compound": "COc1ccc2nc3cc(Cl)ccc3c(Nc3cc(C(C)C)c(O)cc3C)c2c1",
    "T2 sensor activation Q score": 0.55
  },
  {
    "compound": "Nc1ccn(C2OC(CCl)C(O)C2O)c(=O)n1 (configuration not stated)",
    "T2 sensor activation Q score": -0.65
  },
  {
    "compound": "Oc1c(N=Nc2nn[nH]n2)ccc2ccccc12",
    "T2 sensor activation Q score": 3.6
  },
  {
    "compound": "Oc1ccc2ccccc2c1N=Nc1ccc(F)cc1",
    "T2 sensor activation Q score": 0.05
  },
  {
    "compound": "C/C(=N/O)[C@H]1CC[C@H]2[C@@H]3CC[C@@H]4C/C(=N\\O)CC[C@]4(C)[C@H]3[C@@](C)(O)C[C@]12C",
    "T2 sensor activation Q score": 0.5
  },
  {
    "compound": "OC(c1cc(-c2ccc(C(F)(F)F)cc2)nc(C(F)(F)F)c1)C1CCCCN1 (configuration not stated)",
    "T2 sensor activation Q score": 0.5
  },
  {
    "compound": "COc1ccc2c(c1)CCCN2C(N)=Nc1ccc(Cl)cc1",
    "T2 sensor activation Q score": 1.25
  },
  {
    "compound": "CC(=O)Nc1ccc(OC(=O)Oc2ccc(NC(C)=O)cc2)cc1",
    "T2 sensor activation Q score": 1.2
  },
  {
    "compound": "Cn1c(=O)c2c(nc(N3CCCCC3)n2C)n(C)c1=O",
    "T2 sensor activation Q score": -0.7
  },
  {
    "compound": "CCOC(=O)c1csc(-c2ccc(COC(=O)c3ccccc3)o2)n1",
    "T2 sensor activation Q score": -1
  },
  {
    "compound": "Nc1ccc(SCc2nc3cccc4c3n2CCC4)cc1",
    "T2 sensor activation Q score": 0.35
  }
]
